- EXPERIMENT DESCRIPTION: HepG2 cytotoxicity, primary screen, cytotoxicity control for P. falciparum antimalarial project, cell-based, ATP luminescence (AID 2303);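 further: 0% = DMSO wells and 100% = digitonin-killed cells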
- CONDITION INFO: HepG2 viability, 24-48 h, at 10 µM, hits give high values
REPORTED ENDPOINT: inhibition (%)

INSERT INTO measurements (compound, unit_symbol, readout_number) VALUES
  ('COCCNCc1ccc(-c2cccc(CNC3CCN(Cc4ccccc4)CC3)c2)cc1', '%', 30),
  ('C[C@H]1[C@H](c2cccc(Cl)c2)OCC(C)(C)N1C(=O)CCN1CCCCC1', '%', 2),
  ('CCn1c2ccccc2c2cc(C=NNc3cc(C)nc4ccccc34)ccc21', '%', 19),
  ('COc1ccccc1N1CCN(C(C(=O)NCc2cccc(F)c2)c2ccc(C)cc2)CC1 (stereo not given)', '%', 4),
  ('O=C1CN(C(=O)CCC2CCCC2)C(c2ccc(F)cc2)c2cc(F)ccc2N1 (stereo not given)', '%', 12);
